assay: Biotin-PGE2 ELISA (PGE2-biotinamide binding to captured IgG); details: Biotin-PGE2 0 μM

molecule	Binding to PGE2-Biotinamide (OD450)
K3A: human anti-PGE2 antibody from PROfusion mRNA display; VH SEQ ID NO 13, VL SEQ ID NO 17 (antibody, V domains shown) VH: EVQLVQSGAETKKPGASVEVSCKASGYSFTEYGISWVRQAPGQGPEWMGCISPYNGKLHYAQEFQGRVTMTTGTSTNTAYMELGSLRSDDTAVYYCARGGFSFYDSSGYYYVTDHWGQGTLVTVSS VL: DIRLTQSPSSLSASVGDRVTITCRASQSIGSYLNWYQQKSGKAPKLLIYAASKLQSGVPSRFSGSGFGTDFTLTISSLQPEDSATYYCQQSDTTPFTFGQGTKLEIKR	0.11

Data provenance: patent US8624002B2
